Origin of values: patent US20230115257A1

Measured target: SARS-CoV-2 Beta (B.1.351) variant prefusion stabilized spike trimer protein (UniProt P0DTC2 14-1213)
Test: ELISA
Reported property: pIC50
Numbers only, as −log10 of the molar value.

Enquiry: Answer with the recorded pIC50 of 2-G20-A (antibody, V domains shown) VH: EVQLQQSGPELVKPGASVKMSCKASGYTFPSYVLHWVKQKPGQGLEWIGYIYPYNDGTNYNEKFKGKATLTSDKSSSTAYMELSSLTSEDSAVYYCARGDYGDSAWFPYWGQGTLVTVSA VL: DIVLTQSPASLAVSLGQRATISCRASKSVSTSGYSYMHWYQQKPGQPPKLLIYLASNLKSGVPARFSGGGSGTDFTLNIHPVEEEDAATYYCQLSRELPWTFGGGTKLEIK only.
Return: 7.73
